As shown below, each of these substances has a reported log10(IC50) value.
Target: P-selectin (Homo sapiens, UniProt P16109)
Construct: from tissue; host or cells: outdated human platelet packs from a blood bank
Sequence (P16109 42-830): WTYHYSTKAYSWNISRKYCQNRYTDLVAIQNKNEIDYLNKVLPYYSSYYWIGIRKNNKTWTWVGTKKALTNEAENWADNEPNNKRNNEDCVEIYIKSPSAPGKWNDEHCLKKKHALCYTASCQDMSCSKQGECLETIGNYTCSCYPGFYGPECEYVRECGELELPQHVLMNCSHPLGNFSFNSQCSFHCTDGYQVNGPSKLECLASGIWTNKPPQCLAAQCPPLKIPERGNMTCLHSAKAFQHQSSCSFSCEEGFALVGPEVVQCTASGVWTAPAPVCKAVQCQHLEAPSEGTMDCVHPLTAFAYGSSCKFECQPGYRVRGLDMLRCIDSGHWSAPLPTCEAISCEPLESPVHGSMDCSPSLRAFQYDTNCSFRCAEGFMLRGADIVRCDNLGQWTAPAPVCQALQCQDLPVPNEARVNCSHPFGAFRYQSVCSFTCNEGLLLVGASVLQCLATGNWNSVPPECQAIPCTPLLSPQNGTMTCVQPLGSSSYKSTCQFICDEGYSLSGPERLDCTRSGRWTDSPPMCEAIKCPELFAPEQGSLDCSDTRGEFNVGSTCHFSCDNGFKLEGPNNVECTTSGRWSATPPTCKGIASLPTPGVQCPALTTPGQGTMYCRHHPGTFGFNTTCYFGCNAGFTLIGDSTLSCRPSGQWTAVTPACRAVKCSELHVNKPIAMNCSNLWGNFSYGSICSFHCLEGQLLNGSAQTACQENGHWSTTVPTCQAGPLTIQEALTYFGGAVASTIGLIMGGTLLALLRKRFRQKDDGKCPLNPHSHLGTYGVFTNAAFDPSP
Test: Inhibition of binding of human neutrophils to P-selectin (neutrophil adhesion to purified immobilized P-selectin, myeloperoxidase readout)
Format: cell-based
Conditions: P-selectin purified from human platelets, plated at 5 micrograms/mL, peptides tested 1.0 mM to 0.001 mM
Where no end group is shown, it is not given here.
Values reflect log10 of reported IC50 (µM).

substance	reported.property	observed.measurement
SRKKLALCY-NH2 [SEQ ID NO: 64, SRKKLALCY--NH2]	log10(IC50)	1.20
Ac-SRRKLALCY-NH2 [SEQ ID NO: 68, Ac-SRRKLALCY--NH2]	log10(IC50)	1.43
SKKKLALTY-NH2 [SEQ ID NO: 41, SKKKLALTY--NH2]	log10(IC50)	2.63
HKKKLALCY-NH2 [SEQ ID NO: 10, HKKKLALCY--NH2]	log10(IC50)	1.74
SHKKLALCY-NH2 [SEQ ID NO: 18, SHKKLALCY--NH2]	log10(IC50)	2.56
SKFKLALCY-NH2 [SEQ ID NO: 20, SKFKLALCY--NH2]	log10(IC50)	1.57
SKKKAALCY-NH2 [SEQ ID NO: 24, SKKKAALCY--NH2]	log10(IC50)	2.37
SKKKLALIV-NH2 [SEQ ID NO: 33, SKKKLALIV--NH2]	log10(IC50)	2.59

What the record says about SKKQLALCY-NH2 [SEQ ID NO: 48, SKKQLALCY--NH2] : log10(IC50) is 2.29

What the record says about SKKKLQACY-NH2 [SEQ ID NO: 46, SKKKLQACY--NH2] : log10(IC50) is 2.52

* * *

Biological target: P-selectin (Homo sapiens, UniProt P16109)
Test: Inhibition of binding of human neutrophils to P-selectin (neutrophil adhesion to purified immobilized P-selectin, myeloperoxidase readout)
Conditions: P-selectin purified from human platelets, plated at 5 micrograms/mL, peptides tested 1.0 mM to 0.001 mM
Where a SMILES comes first, the peptide text is derived from it. Bridges are numbered along the chain shown (N, C = ends).
As shown below, each of these compounds has a reported pIC50 value.
In textbook form, pIC50 equals minus log to base ten of the concentration in mol/L.

compound	assayed.target	reported.property	observed.measurement
CC(C)C[C@@H]1NC(=O)[C@H](C)NC(=O)[C@H](C)NC(=O)[C@H](CCCCN)NC(=O)[C@H](CC(C)C)NC(=O)[C@H](CCCCN)NC(=O)[C@H](Cc2c[nH]cn2)NC(=O)[C@@H](N)CSSC[C@@H](C(=O)N[C@@H](Cc2ccc(O)cc2)C(N)=O)NC1=O [SEQ ID NO: 6] (H-CHKLKAALCY-NH2; disulfide 1-9)	P-selectin (Homo sapiens, UniProt P16109)	pIC50	5.70

Turning to the following compound.
What the record says about CC(C)C[C@H](NC(=O)[C@H](C)NC(=O)[C@H](C)NC(=O)[C@H](CCCCN)NC(=O)[C@H](CC(C)C)NC(=O)[C@H](CCCCN)NC(=O)[C@H](Cc1c[nH]cn1)NC(=O)[C@@H](N)CS)C(=O)N[C@@H](CS)C(=O)N[C@@H](Cc1ccc(O)cc1)C(N)=O [SEQ ID NO: 3] (H-CHKLKAALCY-NH2) : pIC50 is 3.55

* * *

Molecular target: P-selectin (Homo sapiens, UniProt P16109)
Construct: from tissue; host or cells: outdated human platelet packs from a blood bank
Experiment: Inhibition of binding of human neutrophils to P-selectin (neutrophil adhesion to purified immobilized P-selectin, myeloperoxidase readout)
Type: cell-based
Settings: P-selectin purified from human platelets, plated at 5 micrograms/mL, peptides tested 1.0 mM to 0.001 mM
pIC50: −log10 of the molar value. Where no end group is shown, it is not given here.
# if value of pIC50 reaches 4, tag TRUE; if it stays below, tag FALSE

Examples with answers:
substance	answer.label
Ac-SKLKLALCY-NH2 [SEQ ID NO: 51, Ac-SKLKLALCY--NH2]	TRUE
Ac-SKKKLALVY-NH2 [SEQ ID NO: 39, Ac-SKKKLALVY--NH2]	FALSE
SKRKRALCY-NH2 [SEQ ID NO: 56, SKRKRALCY--NH2]	TRUE
Ac-SKRKLALCY-NH2 [SEQ ID NO: 53, Ac-SKRKLALCY--NH2]	TRUE
SKRRLALSY-NH2 [SEQ ID NO: 59, SKRRLALSY--NH2]	FALSE
LKKKHALCY-NH2 [SEQ ID NO: 11, LKKKHALCY--NH2]	FALSE
SKRKLALCY-NH2 [SEQ ID NO: 54, SKRKLALCY--NH2]	TRUE
SSKKLALCY-NH2 [SEQ ID NO: 70, SSKKLALCY--NH2]	FALSE
SKLKLALCY-NH2 [SEQ ID NO: 52, SKLKLALCY--NH2]	TRUE
Ac-SKKKLALCY-NH2 [SEQ ID NO: 49, Ac-SKKKLALCY--NH2]	TRUE

Task item: Item Ac-FKKKLALCY-NH2 [SEQ ID NO: 7, Ac-FKKKLALCY--NH2] with pIC50 of 4 or above?
Reply: TRUE

Task item: Item SKRRLALCY-NH2 [SEQ ID NO: 58, SKRRLALCY--NH2] with pIC50 of 4 or above?
Reply: TRUE

Task item: Item SKKFLALCY-NH2 [SEQ ID NO: 22, SKKFLALCY--NH2] with pIC50 of 4 or above?
Reply: FALSE

Task item: Item Ac-SKRRLALCY-NH2 [SEQ ID NO: 57, Ac-SKRRLALCY--NH2] with pIC50 of 4 or above?
Reply: TRUE

Task item: Item SKKKIALCY-NH2 [SEQ ID NO: 26, SKKKIALCY--NH2] with pIC50 of 4 or above?
Reply: TRUE

Task item: Item SKKKLALCI-NH2 [SEQ ID NO: 30, SKKKLALCI--NH2] with pIC50 of 4 or above?
Reply: FALSE

* * *

As shown below, each of these substances has a reported pIC50 value.
Biological target: P-selectin (Homo sapiens)
Construct: from tissue; host or cells: outdated human platelet packs from a blood bank
Experiment: Inhibition of binding of human neutrophils to P-selectin (neutrophil adhesion to purified immobilized P-selectin, myeloperoxidase readout)
Assay type: cell-based
Details: P-selectin purified from human platelets, plated at 5 micrograms/mL, peptides tested 1.0 mM to 0.001 mM
Where no end group is shown, it is not given here.
In textbook form, pIC50 equals minus log to base ten of the concentration in mol/L.

Would you please look over these solved cases?
substance	observed.measurement
SRKRLALCY-NH2 [SEQ ID NO: 66, SRKRLALCY--NH2]	5.52
Ac-LKKKLALCY-NH2 [SEQ ID NO: 12, Ac-LKKKLALCY--NH2]	4.59

What the record says about SKKRLALCY-NH2 [SEQ ID NO: 50, SKKRLALCY--NH2] : pIC50 is 5.40

What the record says about SKHKLALCY-NH2 [SEQ ID NO: 21, SKHKLALCY--NH2] : pIC50 is 3.05

What the record says about SKKKLALLY-NH2 [SEQ ID NO: 38, SKKKLALLY--NH2] : pIC50 is 3.88

What the record says about SKSKLALCY-NH2 [SEQ ID NO: 60, SKSKLALCY--NH2] : pIC50 is 3.07
